# System: 786-0 complex spheroids with HUVEC/MSC, growth % test/control
# Assay: Anticancer human tumor 786-0 cell line growth inhibition [AhR];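 also: compound exposure lasted seven days before the read-out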
# Condition description: second compound 1 µM; first compound 0.001 µM; stronger effect = lower value
Measured attribute: viability, T/C (%)
The reply should contain only the number, in %.

Compound	Test target	viability, T/C, %
CC[C@@]1(O)C(=O)OCc2c1cc1n(c2=O)Cc2cc3c(CN(C)C)c(O)ccc3nc2-1 + Cc1cncc(-c2nc(NCCc3c[nH]c4ccccc34)c3ncn(C(C)C)c3n2)c1	786-0 complex spheroids with HUVEC/MSC, growth % test/control	109
Cn1ncnc1C1c2n[nH]c(=O)c3cc(F)cc(c23)NC1c1ccc(F)cc1 (stereo unspecified) + CC(CO)NC(=O)c1cc(-c2ccc(Cl)cc2)nn(-c2cnn(C)c2)c1=O	786-0 complex spheroids with HUVEC/MSC, growth % test/control	107
CC[C@@]1(O)C(=O)OCc2c1cc1n(c2=O)Cc2cc3c(CN(C)C)c(O)ccc3nc2-1 + CC(CO)NC(=O)c1cc(-c2ccc(Cl)cc2)nn(-c2cnn(C)c2)c1=O	786-0 complex spheroids with HUVEC/MSC, growth % test/control	107
CC[C@@]1(O)C(=O)OCc2c1cc1n(c2=O)Cc2cc3c(CN(C)C)c(O)ccc3nc2-1 + Cc1ccccc1N=Nc1ccc(NC(=O)c2ccnn2C)c(C)c1	786-0 complex spheroids with HUVEC/MSC, growth % test/control	101
Cn1ncnc1C1c2n[nH]c(=O)c3cc(F)cc(c23)NC1c1ccc(F)cc1 (stereo unspecified) + Cc1cncc(-c2nc(NCCc3c[nH]c4ccccc34)c3ncn(C(C)C)c3n2)c1	786-0 complex spheroids with HUVEC/MSC, growth % test/control	111

Kindly consider the entry below.
Form field: reported viability, T/C of Cn1ncnc1C1c2n[nH]c(=O)c3cc(F)cc(c23)NC1c1ccc(F)cc1 (stereo unspecified) + Cc1ccccc1N=Nc1ccc(NC(=O)c2ccnn2C)c(C)c1
106

====

The reader will find reported pIC50 values listed item by item below.
# Tested on: 786-0 complex spheroids with HUVEC/MSC, growth % test/control
# Assay: Anticancer human tumor 786-0 cell line growth inhibition [AhR];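 also: compound exposure lasted seven days before the read-out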
# Condition description: curve of first compound; second compound 3.16 µM
Friendly reminder that pIC50 comes from taking -log10 of the concentration in mol/L.

Below, each entry is followed by its recorded pIC50 result.
Compound	Test target	pIC50
COc1cc(C2c3cc4c(cc3C(OC3OC5COC(C)OC5C(O)C3O)C3COC(=O)C23)OCO4)cc(OC)c1O (centres undefined) + CC(CO)NC(=O)c1cc(-c2ccc(Cl)cc2)nn(-c2cnn(C)c2)c1=O	786-0 complex spheroids with HUVEC/MSC, growth % test/control	6.63
O=C(C=Cc1cccc(S(=O)(=O)Nc2ccccc2)c1)NO + CC(CO)NC(=O)c1cc(-c2ccc(Cl)cc2)nn(-c2cnn(C)c2)c1=O	786-0 complex spheroids with HUVEC/MSC, growth % test/control	5.31
CCc1c2c(nc3ccc(O)cc13)-c1cc3c(c(=O)n1C2)COC(=O)[C@]3(O)CC + CC(CO)NC(=O)c1cc(-c2ccc(Cl)cc2)nn(-c2cnn(C)c2)c1=O	786-0 complex spheroids with HUVEC/MSC, growth % test/control	8.51

What reported pIC50 corresponds to COc1cc(C2c3cc4c(cc3C(OC3OC5COC(C)OC5C(O)C3O)C3COC(=O)C23)OCO4)cc(OC)c1O (centres undefined) + Cc1cncc(-c2nc(NCCc3c[nH]c4ccccc34)c3ncn(C(C)C)c3n2)c1 on 786-0 complex spheroids with HUVEC/MSC, growth % test/control?
6.35
